Items are presented alongside their recorded remaining activity at 0.01 µM.
# ASSAY SYSTEM: PADI4 (Homo sapiens, UniProt Q9UM07)
# Construct: His6; made in house
# Sequence (Q9UM07 whole entry): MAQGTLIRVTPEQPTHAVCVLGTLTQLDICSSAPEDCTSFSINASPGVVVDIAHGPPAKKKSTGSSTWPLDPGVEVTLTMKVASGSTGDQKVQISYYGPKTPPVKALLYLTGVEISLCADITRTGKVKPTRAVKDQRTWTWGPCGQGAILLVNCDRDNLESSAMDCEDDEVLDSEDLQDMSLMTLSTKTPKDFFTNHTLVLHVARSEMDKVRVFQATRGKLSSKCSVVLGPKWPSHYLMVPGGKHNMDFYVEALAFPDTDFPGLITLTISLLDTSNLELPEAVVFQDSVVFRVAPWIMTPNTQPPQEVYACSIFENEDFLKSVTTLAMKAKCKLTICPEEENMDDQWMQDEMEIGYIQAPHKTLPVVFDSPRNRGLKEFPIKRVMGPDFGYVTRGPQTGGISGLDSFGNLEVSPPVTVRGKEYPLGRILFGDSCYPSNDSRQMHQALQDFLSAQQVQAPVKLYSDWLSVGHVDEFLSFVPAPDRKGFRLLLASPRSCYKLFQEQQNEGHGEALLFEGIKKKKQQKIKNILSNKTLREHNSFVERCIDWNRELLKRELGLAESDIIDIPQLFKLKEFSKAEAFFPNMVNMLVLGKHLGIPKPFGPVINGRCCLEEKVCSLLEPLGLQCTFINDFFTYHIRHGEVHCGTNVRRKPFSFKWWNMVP
# PROTOCOL DESCRIPTION: COLDER inhibition assay, BAEE substrate, with or without 1 h preincubation
# Type: biochemical
# CONDITION DETAILS: peptide 0.01 µM, T=1; read-out: PADI4 activity normalised to 0.1% DMSO
Where a SMILES comes first, the peptide text is derived from it. Bridges are numbered along the chain shown (N, C = ends). [ ]: non-standard residue; d: D form. Orn(fluoroacetimidoyl) = N=C(CF)NCCC[C@H](N)C(=O)O
Numbers only here, please. The scale is %.

Answered examples (2):
{"COMPOUND": "N=C(N)NCCC[C@@H]1NC(=O)[C@H](Cc2ccc(O)cc2)NC(=O)[C@H](Cc2c[nH]cn2)NC(=O)[C@H](CCCNC(=N)CF)NC(=O)[C@H](CC(=O)O)NC(=O)[C@H](CCCNC(=N)N)NC(=O)[C@@H](Cc2ccc(O)cc2)NC(=O)CSC[C@@H](C(=O)NCC(N)=O)NC(=O)[C@H](Cc2ccc(O)cc2)NC(=O)[C@H](CCCCN)NC(=O)[C@@H]2CCCN2C(=O)[C@H](Cc2c[nH]cn2)NC1=O [PADI4_3_H4(2), yRD(2)HYRHPKYCG] ({CH2CO}-[dY]RD[Orn(fluoroacetimidoyl)]HYRHPKYCG-NH2; thioether N-12)", "UNIT DESCRIPTOR": "%", "remaining activity at 0.01 µM": 83.7}
{"COMPOUND": "CC[C@H](C)[C@H](NC(=O)[C@H](Cc1c[nH]c2ccccc12)NC(=O)[C@H](CCC(=O)O)NC(=O)[C@@H]1CSCC(=O)N[C@H](Cc2ccc(O)cc2)C(=O)N[C@@H](C(C)C)C(=O)N[C@@H](Cc2ccc(O)cc2)C(=O)N[C@@H](CCCNC(=N)CF)C(=O)N[C@@H](CC(=O)O)C(=O)N1)C(=O)N[C@@H](CC(N)=O)C(=O)N[C@@H](CCCNC(=N)N)C(=O)N[C@@H](C)C(=O)NCC(N)=O [cP4_165, yVY(2)DCEWINRAG] ({CH2CO}-[dY]VY[Orn(fluoroacetimidoyl)]DCEWINRAG-NH2; thioether N-6)", "UNIT DESCRIPTOR": "%", "remaining activity at 0.01 µM": 89}

Switching to the query record.
## Input What reported remaining activity at 0.01 µM corresponds to CC(C)C[C@@H]1NC(=O)[C@H](CCCCN)NC(=O)[C@H](CO)NC(=O)[C@H](CO)NC(=O)[C@H](Cc2ccc(O)cc2)NC(=O)[C@H](Cc2c[nH]cn2)NC(=O)[C@H](CCCNC(=N)CF)NC(=O)[C@H](CC(=O)O)NC(=O)[C@H](CC(C)C)NC(=O)[C@@H](Cc2ccc(O)cc2)NC(=O)CSC[C@@H](C(=O)NCC(N)=O)NC(=O)[C@H](Cc2ccc(O)cc2)NC1=O [cP4_15, yLD(2)HYSSKLYCG] ({CH2CO}-[dY]LD[Orn(fluoroacetimidoyl)]HYSSKLYCG-NH2; thioether N-12) on PADI4 (Homo sapiens, UniProt Q9UM07)?
## Output 88.3
